System: MCF10A
assay overview: one-nucleolus phenotype percent effect (relative to siNT 0% and siNOL11 100%); higher = more cells with one nucleolus (ribosome biogenesis inhibition)
recorded conditions: 20 nM; 72 h
value type: one-nucleolus phenotype percent effect (%)
One number for each entry, in %.

Provide one-nucleolus phenotype percent effect values for the following items, in order.
1. UUCAAGUAAUCCAGGAUAGGCU [hsa-miR-26a-5p]
2. AAAUAUAUAUAUAUAUGUACGUAU [hsa-miR-1277-5p]
3. AAGCAGCAGUGGCAAGACUCCU [hsa-miR-6838-5p]
4. AGGUUCUGUGAUACACUCCGACU [hsa-miR-152-5p]
5. UGUGGGACUGCAAAUGGGAG [hsa-miR-4648]
6. CACGCUCAUGCACACACCCACA [hsa-miR-574-3p]
7. AUGGAGCUGGAACCAGAUCAGGC [hsa-miR-6874-5p]

Result:
-6.05
-29.6
31.1
65.8
19.7
-8.15
41.9

Provide one-nucleolus phenotype percent effect values for the following items, in order.
1. AGGCAGUGUAUUGUUAGCUGGC [hsa-miR-449b-5p]
2. GCUGGUGACAUGAGAGGC [hsa-miR-4299]

Result:
1: -25.7; 2: -5.58

Provide one-nucleolus phenotype percent effect values for the following items, in order.
1. CUACUUCUACCUGUGUUAUCAU [hsa-miR-3682-5p]
2. UCUGCAAGUGUCAGAGGCGAGG [hsa-miR-2276]

Result:
19.8
-15.8

Provide one-nucleolus phenotype percent effect values for the following items, in order.
1. UGUGUGUGUAGAGGAAGAAGGGA [hsa-miR-6867-5p]
2. UAGGGGAAAAGUCCUGAUCCGG [hsa-miR-6783-5p]

Result:
1. 64.8
2. -20.2

* * *

System: MCF10A
assay overview: one-nucleolus phenotype percent effect (relative to siNT 0% and siNOL11 100%); higher = more cells with one nucleolus (ribosome biogenesis inhibition)
recorded conditions: 20 nM; 72 h
value type: one-nucleolus phenotype percent effect (%)
Give bare numbers, in %.

Record excerpt, results attached:
Q: What value of measured one-nucleolus phenotype percent effect is listed for CAGGCGUCUGUCUACGUGGCUU [hsa-miR-3186-5p] ?
Result: 27.8

Q: What value of measured one-nucleolus phenotype percent effect is listed for UCUCCCUUCCUGCCCUGGCUAG [hsa-miR-4685-3p] ?
Result: -25.3

Q: What value of measured one-nucleolus phenotype percent effect is listed for AGGAUUUCAGAAAUACUGGUGU [hsa-miR-3167] ?
Result: -14.6

Q: What value of measured one-nucleolus phenotype percent effect is listed for ACUGGACUUAGGGUCAGAAGGC [hsa-miR-422a] ?
Result: 12.5

Q: What value of measured one-nucleolus phenotype percent effect is listed for GCAGGCACAGACAGCCCUGGC [hsa-miR-4269] ?
Result: 43.1

---
Q: What value of measured one-nucleolus phenotype percent effect is listed for UAACACUGUCUGGUAACGAUGU [hsa-miR-200a-3p] ?
Result: -6.99

* * *

Tested on: MCF10A
assay overview: one-nucleolus phenotype percent effect (relative to siNT 0% and siNOL11 100%); higher = more cells with one nucleolus (ribosome biogenesis inhibition)
recorded conditions: 20 nM; 72 h
value type: one-nucleolus phenotype percent effect

Record excerpt, results attached:
Q: What value of measured one-nucleolus phenotype percent effect is listed for CGUCCCACCCCCCACUCCUGU [hsa-miR-4433-5p] ?
Result: -1.75%

Q: What value of measured one-nucleolus phenotype percent effect is listed for UUUUGUGUCUCCCAUUCCCCAG [hsa-miR-5010-3p] ?
Result: -9.03%

Q: What value of measured one-nucleolus phenotype percent effect is listed for UCUGGGAGGUUGUAGCAGUGGAA [hsa-miR-3192] ?
Result: 62.5%

Q: What value of measured one-nucleolus phenotype percent effect is listed for UCACAAGUCAGGCUCUUGGGAC [hsa-miR-125b-2-3p] ?
Result: 59.8%

Q: What value of measured one-nucleolus phenotype percent effect is listed for AGGCAGCGGGGUGUAGUGGAUA [hsa-miR-885-3p] ?
Result: 61.2%

Q: What value of measured one-nucleolus phenotype percent effect is listed for AGAACUCUUGCAGUCUUAGAUGU [hsa-miR-4680-5p] ?
Result: -11.5%

Q: What value of measured one-nucleolus phenotype percent effect is listed for UAGGCACACUUAAAGUUAUAGC [hsa-miR-5582-5p] ?
Result: 37.6%

Q: What value of measured one-nucleolus phenotype percent effect is listed for UUGGGGAUUGGGUCAGGCCAGU [hsa-miR-6857-5p] ?
Result: 29.9%

Provide one-nucleolus phenotype percent effect values for the following items, in order.
1. UAGUGAGUUAGAGAUGCAGAGCC [hsa-miR-3174]
2. UCCCUGGAGUUUCUUCUU [hsa-miR-4308]
3. CAAUGGCACAAACUCAUUCUUGA [hsa-miR-5197-5p]

Result:
12.5%
-7.67%
71%

* * *

Tested on: MCF10A
assay overview: one-nucleolus phenotype percent effect (relative to siNT 0% and siNOL11 100%); higher = more cells with one nucleolus (ribosome biogenesis inhibition)
recorded conditions: 20 nM; 72 h
Each entry gets not satisfied if its one-nucleolus phenotype percent effect stays under 10%, and satisfied if its one-nucleolus phenotype percent effect is 10% or above.

For orientation, consider the following solved cases.
Q: Quick check, one-nucleolus phenotype percent effect >= 10%? AACGCACUUCCCUUUAGAGUGU [hsa-miR-521]
Result: not satisfied

Q: Quick check, one-nucleolus phenotype percent effect >= 10%? UCGGGGAGUCUGGGGUCCGGAAU [hsa-miR-6889-5p]
Result: not satisfied

Q: Quick check, one-nucleolus phenotype percent effect >= 10%? AUAGUGGUUGUGAAUUUACCUU [hsa-miR-4460]
Result: satisfied

Q: Quick check, one-nucleolus phenotype percent effect >= 10%? AAAAGGCAUUGUGGUUUUUG [hsa-miR-548an]
Result: satisfied

Q: Quick check, one-nucleolus phenotype percent effect >= 10%? CGCGCCUGCAGGAACUGGUAGA [hsa-miR-6720-3p]
Result: not satisfied

---
Q: Quick check, one-nucleolus phenotype percent effect >= 10%? CCCGGAGCCAGGAUGCAGCUC [hsa-miR-1203]
Result: not satisfied

Q: Quick check, one-nucleolus phenotype percent effect >= 10%? UGCCUGGGUCUCUGGCCUGCGCGU [hsa-miR-661]
Result: satisfied

* * *

System: MCF10A
assay overview: percent viability (nuclei count relative to siNT); higher = more viable cells
recorded conditions: 20 nM; 72 h
Give measured percent viability for each item. Keep answers brief.
Quick note: number first, unit second.

Record excerpt, results attached:
Q: What value of measured percent viability is listed for UUCUCCAAAAGGGAGCACUUUC [hsa-miR-519e-5p] ?
Result: 39.5%

Q: What value of measured percent viability is listed for UAGCACCAUCUGAAAUCGGUUA [hsa-miR-29a-3p] ?
Result: 65.1%

Q: What value of measured percent viability is listed for UAAGGCACGCGGUGAAUGCC [hsa-miR-124-3p] ?
Result: 39.1%

Q: What value of measured percent viability is listed for AACUCUGACCCCUUAGGUUGAU [hsa-miR-4714-5p] ?
Result: 41.1%

Q: What value of measured percent viability is listed for GAAAUCAAGCGUGGGUGAGACC [hsa-miR-551b-5p] ?
Result: 57.5%

Provide percent viability values for the following items, in order.
1. ACUGGCAUGCUGCAUUUAUAUA [hsa-miR-4799-3p]
2. CUAGGUGGGGGGCUUGAAGC [hsa-miR-6802-5p]
3. UGCAGCUCUGGUGGAAAAUGGAG [hsa-miR-4660]

Result:
["66.3%", "33.9%", "43.5%"]

Provide percent viability values for the following items, in order.
1. GAGGCUGAUGUGAGUAGACCACU [hsa-miR-3929]
2. AUAAGACGAGCAAAAAGCUUGU [hsa-miR-208a]
3. CGGGGCCAUGGAGCAGCCUGUGU [hsa-miR-6762-5p]
4. UUGCCAGGGCAGGAGGUGGAA [hsa-miR-5006-5p]
5. UCUGGGGAUGAGGACAGUGUGU [hsa-miR-4700-5p]

Result:
["30.5%", "100%", "86.4%", "69.9%", "35.8%"]

Provide percent viability values for the following items, in order.
1. UCAUUUUUGUGAUGUUGCAGCU [hsa-miR-153-5p]
2. UCCAGGCAGGAGCCGGACUGGA [hsa-miR-4673]
3. UCUAUACAGACCCUGGCUUUUC [hsa-miR-1284]
4. CAGUAACAAAGAUUCAUCCUUGU [hsa-miR-802]

Result:
55%
62.5%
75.8%
81.8%

Provide percent viability values for the following items, in order.
1. AGGGAAAAAAAAAAGGAUUUGUC [hsa-miR-4668-5p]
2. UCAGGACACUUCUGAACUUGGA [hsa-miR-5000-3p]

Result:
65%
53.5%
